Where do the numbers come from? From patent US20250152704A1.

study_target: T1, mouse FcRn (mouse, UniProt Q61559 22-297; P01887 21-119, limits assumed)
T1 sequence (looked up) 1: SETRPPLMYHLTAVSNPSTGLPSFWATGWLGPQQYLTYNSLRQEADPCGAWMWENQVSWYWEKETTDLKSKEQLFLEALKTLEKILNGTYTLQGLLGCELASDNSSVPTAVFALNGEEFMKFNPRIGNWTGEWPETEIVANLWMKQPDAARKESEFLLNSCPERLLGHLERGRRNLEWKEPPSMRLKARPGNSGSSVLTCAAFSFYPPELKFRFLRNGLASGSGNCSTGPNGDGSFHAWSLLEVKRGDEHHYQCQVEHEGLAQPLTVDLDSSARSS
T1 sequence (looked up) 2: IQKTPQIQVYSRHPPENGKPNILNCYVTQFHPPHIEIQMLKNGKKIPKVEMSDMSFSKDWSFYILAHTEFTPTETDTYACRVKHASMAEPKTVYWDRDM
assay_remarks: SPR, pH 7.4
quantity_name: pKd
The value called pKd is obtained by taking minus log10 of the concentration in mol/L.

{"columns": ["binder", "pKd"],
 "data": [
  ["Fc Fragment 1 (other, Human IgG1 Fc fragment (EU 221-446) with the named substitutions already in the entry; also called Efgartigimod (Efgart); Efgartigimod without the C-terminal lysine) DKTHTCPPCPAPELLGGPSVFLFPPKPKDTLYITREPEVTCVVVDVSHEDPEVKFNWYVDGVEVHNAKTKPREEQYNSTYRVVSVLTVLHQDWLNGKEYKCKVSNKALPAPIEKTISKAKGQPREPQVYTLPPSRDELTKNQVSLTCLVKGFYPSDIAVEWESNGQPENNYKTTPPVLDSDGSFFLYSKLTVDKSRWQQGNVFSCSVMHEALKFHYTQKSLSLSPG", 8.55],
  ["Fc Fragment 13 (other, Human IgG1 Fc fragment; substitutions already in the entry) DKTHTCPPCPAPELLGGPSVFLFPPKPKDTLYITREPEVTCVVVDVSHEDPEVKFNWYVDGVEVHNAKTKPREEQYNSTYRVVSVLTVLHQDWLNGKEYKCKVSNKALPAPIEKTISKAKGQPREPQVYTLPPSRDELTKNQVSLTCLVKGFYPSDIAVEWESNGQPENNYKTTPPVLDSDGSFFLYSKLTVDKSRWQQGNVFSCSVMHEALRFHYTQKSLSLSPG", 8.56]
]}

Here is the next item to consider.
QUERY: Reported pKd for Fc Fragment 12 (other, Human IgG1 Fc fragment; substitutions already in the entry) DKTHTCPPCPAPELLGGPSVFLFPPKPKDTLYITREPEVTCVVVDVSHEDPEVKFNWYVDGVEVHNAKTKPREEQYNSTYRVVSVLTVLHQDWLNGKEYKCKVSNKALPAPIEKTISKAKGQPREPQVYTLPPSRDELTKNQVSLTCLVKGFYPSDIAVEWESNGQPENNYKTTPPVLDSDGSFFLYSKLTVDKSRWQQGNVFSCSVMHEALRYHYTQKSLSLSPG : what is it?
RESULT: 8.55
